Would you mind telling me the reported % Activation of each entry?
# assayed_target: ΔF508-CFTR (Homo sapiens, UniProt P13569, DEL508-508)
# Construct: host or cells: CFBE41o-, doxycycline-inducible
# Sequence (P13569 with tags, fused parts or gaps DEL508-508): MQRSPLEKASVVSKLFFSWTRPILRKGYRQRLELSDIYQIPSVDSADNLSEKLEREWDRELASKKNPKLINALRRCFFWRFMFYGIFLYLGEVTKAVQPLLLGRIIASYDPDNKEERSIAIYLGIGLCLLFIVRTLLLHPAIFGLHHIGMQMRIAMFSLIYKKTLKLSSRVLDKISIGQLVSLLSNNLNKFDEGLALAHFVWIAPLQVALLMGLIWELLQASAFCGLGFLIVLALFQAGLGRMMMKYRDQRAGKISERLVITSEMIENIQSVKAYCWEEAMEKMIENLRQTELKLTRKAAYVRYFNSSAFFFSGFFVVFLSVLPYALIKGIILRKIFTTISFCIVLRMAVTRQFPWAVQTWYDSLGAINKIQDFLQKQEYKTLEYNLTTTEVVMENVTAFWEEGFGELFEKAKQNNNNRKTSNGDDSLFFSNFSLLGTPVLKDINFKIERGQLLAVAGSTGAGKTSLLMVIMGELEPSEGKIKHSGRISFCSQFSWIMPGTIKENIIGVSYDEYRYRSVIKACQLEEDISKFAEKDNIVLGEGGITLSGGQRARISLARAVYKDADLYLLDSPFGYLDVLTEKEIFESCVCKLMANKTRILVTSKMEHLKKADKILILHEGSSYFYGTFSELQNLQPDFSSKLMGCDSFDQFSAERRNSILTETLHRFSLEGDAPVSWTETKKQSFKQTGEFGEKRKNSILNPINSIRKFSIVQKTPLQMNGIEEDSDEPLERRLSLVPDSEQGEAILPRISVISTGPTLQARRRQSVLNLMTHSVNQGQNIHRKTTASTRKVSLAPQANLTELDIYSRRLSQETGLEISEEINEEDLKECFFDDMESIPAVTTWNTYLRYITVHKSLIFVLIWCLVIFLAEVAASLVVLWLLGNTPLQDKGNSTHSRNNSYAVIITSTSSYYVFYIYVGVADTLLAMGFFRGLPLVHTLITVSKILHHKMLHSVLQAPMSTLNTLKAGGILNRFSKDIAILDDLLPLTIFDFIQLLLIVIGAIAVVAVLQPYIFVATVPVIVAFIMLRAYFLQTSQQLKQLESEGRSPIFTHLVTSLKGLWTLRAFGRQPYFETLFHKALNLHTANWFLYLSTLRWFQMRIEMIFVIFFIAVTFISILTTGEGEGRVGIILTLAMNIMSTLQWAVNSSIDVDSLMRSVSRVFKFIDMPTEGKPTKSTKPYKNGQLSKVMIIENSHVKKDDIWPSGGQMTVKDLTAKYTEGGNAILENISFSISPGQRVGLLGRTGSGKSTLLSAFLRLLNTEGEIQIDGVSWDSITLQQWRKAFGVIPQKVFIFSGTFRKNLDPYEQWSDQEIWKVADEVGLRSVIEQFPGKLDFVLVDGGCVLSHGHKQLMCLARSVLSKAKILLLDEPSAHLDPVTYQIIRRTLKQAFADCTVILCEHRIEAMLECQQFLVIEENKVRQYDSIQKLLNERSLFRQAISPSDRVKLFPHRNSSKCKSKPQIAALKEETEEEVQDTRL
# test_summary: CFTR cell surface levels using HRP-tagged ΔF508-CFTR expressing CFBE cells, intrinsic corrector capacity
# Assay type: cell-based
# Parameters: concentration or dose not given beside the values
# measurement_setup: HRP-tagged ΔF508-CFTR expressing CFBE41o- cells; compound alone (intrinsic corrector capacity); 20 hours at 33° C.
For clarity, give the value followed by its unit.

Previously resolved entries follow.
>>> experimental_result("COCC1(OC)CCN(c2cc(C(=O)NS(C)(=O)=O)nc3c2c(C2CCC2)nn3-c2ccccc2)CC1")
"126.8%"
>>> experimental_result("CC(C)c1nn(-c2ccnc(N3CCOCC3)c2)c2nc(C(=O)NS(C)(=O)=O)cc(-c3ccc(N4CCOCC4)cc3)c12")
"262.38%"
>>> experimental_result("COCCS(=O)(=O)NC(=O)c1cc(-c2ccc(N3CCOCC3)cc2)c2c(C(C)C)nn(C3CCOC3)c2n1 (centres unmarked)")
"71.64%"

Hi, could you look up % Activation for each item in my list?
1. CN(C)S(=O)(=O)NC(=O)c1cc(C2CCN(CCC(F)(F)F)CC2)c2c(C3CCC3)nn(-c3ccc(F)cc3)c2n1
2. COCC1CCN(c2cc(C(=O)NS(=O)(=O)N3CCC(N4CCOCC4)C3)nc3c2c(C2CCC2)nn3-c2ccc(F)cc2)CC1 (centres unmarked)
3. COCCS(=O)(=O)NC(=O)c1cc(N2CCC(CCN3CCOCC3)CC2)c2c(C3CCC3)nn(-c3ccc(F)cc3)c2n1

**Result**
1. 86.51%
2. 194.67%
3. 365.4%

----------
# assayed_target: ΔF508-CFTR (Homo sapiens, UniProt P13569, DEL508-508)
# Construct: host or cells: CFBE41o-, doxycycline-inducible
# test_summary: CFTR cell surface levels using HRP-tagged ΔF508-CFTR expressing CFBE cells, intrinsic corrector capacity
# Type: cell-based
# Design: concentration or dose not given beside the values
# measurement_setup: HRP-tagged ΔF508-CFTR expressing CFBE41o- cells; compound alone (intrinsic corrector capacity); 20 hours at 33° C.
Would you mind telling me the reported % Activation of each entry?
Numbers only, in %.

Previously resolved entries follow.
>>> experimental_result("CC(C)(O)C1CCN(c2cc(C(=O)NS(C)(=O)=O)nc3c2c(C2CCC2)nn3-c2ccccc2)CC1")
269.6
>>> experimental_result("CONS(=O)(=O)NC(=O)c1cc(N2CCC(N3CCOCC3)CC2)c2c(C3CCC3)nn(-c3ccc(F)cc3)c2n1")
300.8
>>> experimental_result("CC(C)COC(=O)N1CCN(c2cc(C(=O)NS(=O)(=O)N3CCOCC3)nc3c2c(C2CCC2)nn3-c2ccc(F)cc2)CC1")
260.8
>>> experimental_result("CN(C)S(=O)(=O)NC(=O)c1cc(N2CCC(N3CCOCC3)CC2)c2c(C3CCC3)nn(-c3ccnc(OC(F)F)c3)c2n1")
202.65
>>> experimental_result("CN(C)S(=O)(=O)NC(=O)c1cc(N2CCC(N3CCOCC3)CC2)c2c(C3CCC3)nn(-c3cccc(F)c3)c2n1")
222.27

Hi, could you look up % Activation for each item in my list?
1. CS(=O)(=O)NC(=O)c1cc(-c2ccc(N3CCC(C#N)CC3)cc2)c2c(C3CCC3)nn(C3CCCCC3)c2n1
2. COCC1CN(C2CCN(c3cc(C(=O)NS(=O)(=O)N(C)C)nc4c3c(C3CCC3)nn4-c3ccc(F)cc3)CC2)CCO1 (stereo not shown)

**Result**
1: 263.8; 2: 268.45

----------
Would you mind telling me the reported EC50 of each entry?
# assayed_target: ΔF508-CFTR (Homo sapiens, UniProt P13569, DEL508-508)
# Construct: host or cells: CFBE41o-, doxycycline-inducible
# test_summary: CFTR cell surface levels using HRP-tagged ΔF508-CFTR expressing CFBE cells, intrinsic corrector capacity
# Type: cell-based
# measurement_setup: HRP-tagged ΔF508-CFTR expressing CFBE41o- cells; compound alone (intrinsic corrector capacity); 20 hours at 33° C.; read-out: EC50
Answers are plain numbers, in nM.

>>> experimental_result("COC[C@H]1CCCN1S(=O)(=O)NC(=O)c1cc(N2CCC(N3CCOCC3)CC2)c2c(C3CCC3)nn(-c3ccc(F)cc3)c2n1")
257
>>> experimental_result("COCC1CCN(c2cc(C(=O)NS(=O)(=O)N3CCOCC3)nc3c2c(C2CCC2)nn3-c2ccc(F)cc2)CC1")
274
>>> experimental_result("COCC1CCN(c2cc(C(=O)NS(=O)(=O)CCl)nc3c2c(C2CCC2)nn3-c2ccccc2)CC1")
139
>>> experimental_result("CCCOC1CCN(c2cc(C(=O)NS(C)(=O)=O)nc3c2c(C2CCC2)nn3-c2ccccc2)CC1")
357
>>> experimental_result("COCC1CCN(c2cc(C(=O)NS(C)(=O)=O)nc3c2c(C(C)C)nn3-c2cccc(C)c2)CC1")
439

Hi, could you look up EC50 for each item in my list?
1. CCS(=O)(=O)NC(=O)c1cc(N2CCN(c3ccncc3)CC2)c2c(C3CCC3)nn(C3CCCCC3)c2n1
2. CC1(COc2cc(C(=O)NS(C)(=O)=O)nc3c2c(C2CCC2)nn3-c2ccccc2)CC(F)(F)C1
3. CC(C)c1nn(-c2ccc(F)cc2)c2nc(C(=O)NS(C)(=O)=O)cc(N3CCC(C#N)CC3)c12
4. CC(C)c1nn(-c2cccc(N(C)C)n2)c2nc(C(=O)NS(C)(=O)=O)cc(-c3ccc(N4CCOCC4)cc3)c12

**Result**
231
129
377
988

Hi, could you look up EC50 for each item in my list?
1. CN(C)S(=O)(=O)NC(=O)c1cc(N2CCC(N3CCC(C#N)CC3)CC2)c2c(C3CCC3)nn(-c3ccc(F)cc3)c2n1
2. Cc1nn(-c2cccc(C(F)(F)F)c2)c2nc(C(=O)NS(C)(=O)=O)cc(-c3ccc(N(C)C)cc3)c12
3. CN(C)S(=O)(=O)NC(=O)c1cc(N2CCC3(CC2)CC(N2CCOCC2)CO3)c2c(C3CCC3)nn(-c3ccc(F)cc3)c2n1 (stereo not shown)
4. CCS(=O)(=O)NC(=O)c1cc(-c2ccc(N3CCOCC3)cc2)c2c(C)nn(-c3cccc(OC)c3)c2n1
5. O=C(NS(=O)(=O)N1CCC(F)CC1)c1cc(N2CCC(N3CCOCC3)CC2)c2c(C3CCC3)nn(-c3ccccc3)c2n1
6. CC(C)c1nn(C2CCCCC2)c2nc(C(=O)NS(C)(=O)=O)cc(-c3cnc(N4CCOCC4)nc3)c12
7. CC(C)c1nn(-c2ccc(F)cc2)c2nc(C(=O)NS(C)(=O)=O)cc(OCCCN3CCCCC3)c12

**Result**
114
1850
222
657
57.7
557
3330

Hi, could you look up EC50 for each item in my list?
1. CN(C)S(=O)(=O)NC(=O)c1cc(C2CCN(C3CCOCC3)CC2)c2c(C3CCC3)nn(-c3ccc(F)cc3)c2n1
2. CN(C)S(=O)(=O)NC(=O)c1cc(N2CCN(c3ccncc3)CC2)c2c(C3CCC3)nn(C3CCCCC3)c2n1
3. CC(C)c1nn(-c2ccc(F)cc2)c2nc(C(=O)NS(C)(=O)=O)cc(N3CCCC(C(F)F)C3)c12 (stereo not shown)
4. CC(C)c1nn(-c2ccc(F)cc2)c2nc(C(=O)NS(C)(=O)=O)cc(N3CCC4(CCO4)CC3)c12

**Result**
[876, 204, 347, 830]

Hi, could you look up EC50 for each item in my list?
1. COCCN(C)c1ccc(-c2cc(C(=O)NS(C)(=O)=O)nc3c2c(C(C)C)nn3-c2cccc(N3CCOCC3)c2)cc1
2. CC(C)N1CCN(c2ccc(-c3cc(C(=O)NS(=O)(=O)N(C)C)nc4c3c(C3CCC3)nn4C3CCCCC3)cn2)CC1
3. COCCS(=O)(=O)NC(=O)c1cc(N2CCC(COC)CC2)c2c(C(C)C)nn(CC(C)C)c2n1
4. CS(=O)(=O)NC(=O)c1cc(N2CCC(OCC3CC3)CC2)c2c(C3CCC3)nn(-c3ccccc3)c2n1
5. COCCS(=O)(=O)NC(=O)c1cc(N2CCC(CCN3CCOCC3)CC2)c2c(C3CCC3)nn(-c3ccc(F)cc3)c2n1
6. COC1CCN(C2CCN(c3cc(C(=O)NS(=O)(=O)N4CCC4)nc4c3c(C3CCC3)nn4-c3ccc(F)cc3)CC2)CC1
7. CS(=O)(=O)NC(=O)c1cc(N2CC3(CCCCC3)C2)c2c(C3CCC3)nn(-c3ccccc3)c2n1

**Result**
[474, 267, 3330, 406, 165, 304, 1140]

**Query** Give the reported EC50 for this compound. COCC1CCN(c2cc(C(=O)NS(=O)(=O)CC(C)C)nc3c2c(C2CCC2)nn3-c2ccccc2)CC1
**Result** 571

Cited source: patent US10259810B2
